test system: NOMO1; experiment: AUC of viability dose-response curve (% viability x log10 dose units); higher = less sensitive; conditions: RPMI 5 mM glucose + 10% dialyzed FBS; 48 h
ENDPOINT: AUC of viability dose-response curve

- Cc1nc2cc(C(=O)N3CCC4(CC3)CC(=O)c3c(cnn3C(C)C)C4)ccc2[nH]1: 455
- C[C@]1(CO)CN(c2cc(C(=O)Nc3ccc4c(c3)-c3c(c(C(N)=O)nn3-c3ccc(F)cc3)CC4)c(Cl)cn2)C[C@@]1(C)CO: 445
- O=C(CCc1ccc(O)cc1)c1c(O)cc(O)cc1O: 455
- C[C@@H](NCCCc1cccc(C(F)(F)F)c1)c1cccc2ccccc12: 447
- OC1=CC=C(C=C1)\C2=C\OC3=C(C(=CC(=C3)O)O)C2=O: 473
- N#Cc1ccc(Oc2ccc3c(c2)COB3O)cc1: 466
- CC1=C(/C=C/C(C)=C/C=C/C(C)=C\C(=O)O)C(C)(C)CCC1: 420
- O=C(CCCCCCC(=O)Nc1cccnc1)NO: 432
- CC(C)=CCC/C(C)=C/CC/C(C)=C/CSc1ccccc1C(=O)O: 395
- CN1CCN(c2c(F)cc3c(=O)c(C(=O)O)cn(CCF)c3c2F)CC1: 461
- N[C@H]2CN(CC12CC1)c3c(F)cc4c(c3Cl)[N@@](C=C(C4=O)C(=O)O)C5C[C@H]5F (stereo partly drawn): 413
- Cc1nc(NC(=O)N2CCC[C@H]2C(N)=O)sc1-c1csc(C(C)(C)C)n1: 335
- O=C(CS(=O)Cc1ccco1)NC/C=C\COc1cc(CN2CCCCC2)ccn1 (stereo not drawn): 474
- CC(=O)c1cnc2ccc(-c3cc(Cl)c(O)c(Cl)c3)nc2c1N[C@H]1CC[C@H](CN(C)C)CC1: 237
- O=C(CCCCCCC(=O)Nc1ccc([C@H]2O[C@@H](CSc3nc(-c4ccccc4)c(-c4ccccc4)o3)C[C@@H](c3ccc(CO)cc3)O2)cc1)NO: 403
- COc1ccc(OC)c(-c2nnc3ccc(-c4ccc(OC)c(O[C@@H]5CCOC5)c4)nn23)c1: 469
- O=C(CCCCCCNC(=O)c1cnc(N(c2ccccc2)c2ccccc2)nc1)NO: 426
- Cc1c(-c2cccc3c(CCCOc4cccc5ccccc45)c(C(=O)O)n(Cc4cccnc4)c23)c(COc2ccc(N3CCN([S+](=O)([O-])N(C)C)CC3)cc2)nn1C: 423

###

system: NOMO1; assay: cell viability relative to DMSO control; higher = less cytotoxic; conditions: HPLM + 10% dialyzed FBS; 48 h; 5.12 µM
ENDPOINT: cell viability (%)

• NC(=O)[C@H]1CCS[C@@H]2C[C@]3(CCCN3C(=O)Cc3ccc(NC(=O)COc4ccc(Cl)cc4Cl)cc3)C(=O)N12 = 39.9
• N#C/C(=C\c1ccc(O)c(O)c1)C(=O)NCc1ccccc1 = 91.7
• C[C@@H]1CN(Cc2ccc(F)cc2)[C@@H](C)CN1C(=O)c1cc2c(C(=O)C(=O)N(C)C)cn(C)c2cc1Cl = 131
• OC1=CC=C(C=C1)\C2=C\OC3=C(C(=CC(=C3)O)O)C2=O = 107
• O=C(Nc1nnc(-c2ccco2)o1)c1cc(-c2ccccc2)nc2ccccc12 = 65.5
• COc1cc(Nc2c(C#N)cnc3cc(OCCCN4CCN(C)CC4)c(OC)cc23)c(Cl)cc1Cl = 52.1
• CC(C)=CCC/C(C)=C/CC/C(C)=C/CC/C(C)=C/CC/C(C)=C/CC/C(C)=C/CC/C(C)=C/CC/C(C)=C/CC/C(C)=C/CO = 100
• CCN(CCO)CCCOc1ccc2c(Nc3cc(CC(=O)Nc4cccc(F)c4)[nH]n3)ncnc2c1 = 77.8
• OC1=CC2=C(C=C1)C(=O)\C(=C(O2)\C3=CC(=C(O)C=C3)O)O = 84
• CCN1C[C@H](C)[N]2C(=C(O)C3=C2\C(=N/N(CC4=CC=C(F)C(=C4)Cl)C3=O)C(=O)NC)C1=O = 96.5
• Cc1ccc([N+](=O)[O-])cc1[S+](=O)([O-])N(C)/N=C/c1cnc2ccc(Br)cn12 = 4.83
• COc1cc([C@@H]2c3cc4c(cc3[C@H](O)[C@H]3COC(=O)[C@@H]23)OCO4)cc(OC)c1OC = 33.8
• Cc1nc2cc(C(=O)N3CCC4(CC3)CC(=O)c3c(cnn3C(C)C)C4)ccc2[nH]1 = 112
• CC[S+](=O)([O-])Nc1ccc2c(c1)/C(=C(/Nc1ccc(CN3CCCCC3)cc1)c1ccccc1)C(=O)N2 = 45.9
• N[S+](=O)([O-])c1cc2c(cc1Cl)NC(C(Cl)Cl)N[S+]2(=O)[O-] (configuration not stated) = 121
• O=C(Nc1c[nH]nc1-c1nc2cc(CN3CCOCC3)ccc2[nH]1)NC1CC1 = 97.9
• CCn1c(-c2nonc2N)nc2c(C#CC(C)(C)O)ncc(OC[C@H]3CCCNC3)c21 = 70.3
